Test: binders of probe aFGF10 on microarray, primary screen, stem cell growth factor project, biochemical, small-molecule microarray, fluorescence 635/667 (AID 1071);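 further: score merges 667 nm spot intensity and signal to noise from triplicate slides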
Conditions: higher = more signal
Class MET: composite z-score at least 0.2. Class NOT MET: composite z-score below 0.2.

Past entries and their recorded results:
O=C1c2ccccc2[C@@]2(Cc3ccccc3N(C3CC3)C2=O)[C@H](c2ccc(CO)cc2)N1Cc1ccccc1C(F)(F)F
NOT MET
CCN1C(=O)[C@H]2[C@H]3[C@H](O)[C@H](O)CC(=NO[C@@H]4O[C@H](CO)[C@@H](O)[C@H](O)[C@H]4O)[C@@H]3CC[C@H]2C1=O
NOT MET
COC(=O)[C@@]1(Cc2ccccc2)[C@H]2c3cc(C(=O)N4CCCC4)n(Cc4ccccn4)c3C[C@H]2CN1C(=O)c1ccccc1
MET
CCOC(=O)NN=C1C[C@@H](O)[C@@H](O)[C@@H]2[C@@H]3C(=O)N(CC)C(=O)[C@@H]3CC[C@@H]12
MET
CC(C)CON=C1C[C@@H](O)[C@@H](O)[C@@H]2[C@@H]3C(=O)N([C@@H](C)c4ccccc4)C(=O)[C@@H]3CC[C@H]12
MET
CN(C)CCCNC(=O)[C@@H]1c2ccccc2C(=O)N(Cc2cc(F)cc(C(F)(F)F)c2)[C@H]1c1ccc(CO)cc1
NOT MET

Below: the item to evaluate.
[ask] Item "C=CC[C@@H]1C=C[C@H](ON=C2c3cc(OC)ccc3O[C@H](c3cccc(OC)c3)[C@H]2O)[C@@H](CO)O1" with composite z-score of 0.2 or above?
[reply] MET

###

Test system: Fibrinogen (Alexa647-labelled)
Experiment: fibrinogen binders on compound microarrays, profiling panel, artefact control for SMM control-protein annotation, biochemical, small-molecule microarray, 635/667 nm fluorescence (AID 1131);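 further: z-score merges 667 nm fluorescence with per-spot signal-to-noise over triplicate slides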
Conditions: fibrinogen-A647 binding fluorescence, higher = more signal
// reported composite z-score per item
Respond with the number and no other words.

CC(CCN1CCc2nc(-c3ccccc3)c(-c3ccccc3)cc2C1)=NOC[C@@H](C)[C@H](OCc1ccccc1)C(C)C
-0.242
O=C1O[C@@H](c2ccccc2)[C@@H](c2ccccc2)N2[C@@H](c3ccccc3OCCO)[C@]3(C(=O)Nc4ccc(C#CCCO)cc43)[C@@H](C(=O)O)[C@H]12
0.923
COc1cccc([C@@H]2Oc3ccc(Br)cc3C(=O)[C@H]2O)c1
0.946
C=C(/C(=C/C[C@@H](OC(=O)c1ccncc1)c1ccc(OCCO)cc1)c1cnc2ccccc2c1)C(C)C
0.806
[N-]=[N+]=Nc1ccccc1C[C@@]1(C(N)=O)N=C(c2ccc(OCCCO)cc2)O[C@@H]1c1ccccc1
-0.367
COC(=O)[C@H](C)NC(=O)CCC1CC(OC(=O)NCCc2ccc(F)cc2)CC2(CCCC(COC(=O)NCCc3ccc(Cl)cc3)O2)O1 (stereo partly specified)
0.873
CC(C)(C)OC(=O)CC[C@]1(C(N)=O)COC(c2ccc(OCCCO)cc2)=N1
0.29
C#C[C@@H]1Oc2ccccc2S(=O)(=O)N2CCC[C@H]12
-0.635

What the record says about CC1CC/C=C\[C@H]2OC34C=CCN(C(C)C)C(=O)[C@H]3N(CCCO)C(=O)[C@@H]4C2C(=O)O1 (stereo partly specified) : composite z-score is -1.5

What the record says about "COCCOC(=O)N1C(=O)[C@@]2(c3ccccc31)[C@H](C(N)=O)[C@H]1C(=O)O[C@H](c3ccccc3)[C@H](c3ccccc3)N1[C@@H]2c1ccccc1OCCO" : composite z-score is 0.882
